Provide the reported pIC50 of each item.
System: BT-474
MEASUREMENT_PROTOCOL: Antiproliferative activity against human BT474 cells after 48 hrs by Alamar blue assay
Format: functional, cell-based
CONDITIONS: BT-474, 48 h
Answers are plain numbers, as −log10 of the molar value.

Consider the following illustrative entries.
- COMPOUND: "C=C[C@@]1(C)CC(=O)[C@]2(O)[C@@]3(C)[C@@H](OCc4cc(-c5ccc(C)cc5)no4)CCC(C)(C)[C@@H]3[C@H](O)[C@H](OC(C)=O)[C@@]2(C)O1"
  pIC50: 4.12
- COMPOUND: "C=C[C@@]1(C)CC(=O)[C@]2(O)[C@@]3(C)[C@@H](OCc4cc(-c5ccc(OC)cc5)no4)CCC(C)(C)[C@@H]3[C@H](O)[C@H](OC(C)=O)[C@@]2(C)O1"
  pIC50: 5.40
- COMPOUND: "CC[C@@]1(C)CC(=O)[C@]2(O)[C@@]3(C)[C@@H](OCc4cc(-c5ccccc5)no4)CCC(C)(C)[C@@H]3[C@H](O)[C@H](OC(C)=O)[C@@]2(C)O1"
  pIC50: 5.04
- COMPOUND: "CC[C@@]1(C)CC(=O)[C@]2(O)[C@@]3(C)[C@@H](OCc4cc(-c5cc(OC)c(OC)c(OC)c5)no4)CCC(C)(C)[C@@H]3[C@H](O)[C@H](OC(C)=O)[C@@]2(C)O1"
  pIC50: 4.53
- COMPOUND: "CC[C@@]1(C)CC(=O)[C@]2(O)[C@@]3(C)[C@@H](OCc4cc(-c5ccc(Cl)cc5)no4)CCC(C)(C)[C@@H]3[C@H](O)[C@H](OC(C)=O)[C@@]2(C)O1"
  pIC50: 5.15
- COMPOUND: "CC[C@@]1(C)CC(=O)[C@]2(O)[C@@]3(C)[C@@H](OCc4cc(-c5ccc(OC)cc5)no4)CCC(C)(C)[C@@H]3[C@H](O)[C@H](OC(C)=O)[C@@]2(C)O1"
  pIC50: 5.68

Consider now this further compound.
# pIC50 lookup, item CC(=O)O[C@H]1[C@@H](O)[C@H]2C(C)(C)CC[C@H](OCc3cc(-c4ccc(OCc5ccccc5)cc4)no3)[C@]2(C)[C@@]2(O)C(=O)C[C@](C)(C3CC(c4ccc(OCc5ccccc5)cc4)=NO3)O[C@]12C (stereo partly specified)
4.10

* * *

Provide the reported IC50 of each item.
System: BT-474
MEASUREMENT_PROTOCOL: Antiproliferative activity against human BT474 cells after 48 hrs by Alamar blue assay
Format: functional, cell-based
CONDITIONS: BT-474, 48 h

Consider the following illustrative entries.
- MOLECULE: "C=C[C@@]1(C)CC(=O)[C@]2(O)[C@@]3(C)[C@@H](OCc4cc(-c5c(OC)cc(OC)cc5OC)no4)CCC(C)(C)[C@@H]3[C@H](O)[C@H](OC(C)=O)[C@@]2(C)O1"
  IC50: "> 100 µM"
- MOLECULE: "C=C[C@@]1(C)CC(=O)[C@]2(O)[C@@]3(C)[C@@H](OCc4cc(-c5ccc(OCc6ccccc6)cc5)no4)CCC(C)(C)[C@@H]3[C@H](O)[C@H](OC(C)=O)[C@@]2(C)O1"
  IC50: "0.5 µM"
- MOLECULE: "COc1ccc(C2=NOC([C@@]3(C)CC(=O)[C@]4(O)[C@@]5(C)[C@@H](OCc6cc(-c7ccc(OC)cc7)no6)CCC(C)(C)[C@@H]5[C@H](OC(C)=O)[C@H](O)[C@@]4(C)O3)C2)cc1 (some centres undefined)"
  IC50: "> 100 µM"

# IC50 lookup, item C=C[C@@]1(C)CC(=O)[C@]2(O)[C@@]3(C)[C@@H](OCc4cc(-c5cc(OC)c(OC)c(OC)c5)no4)CCC(C)(C)[C@@H]3[C@H](O)[C@H](OC(C)=O)[C@@]2(C)O1
> 100 µM

* * *

Tested on: BT-474
MEASUREMENT_PROTOCOL: Antiproliferative activity against human BT474 cells after 48 hrs by Alamar blue assay
Format: functional, cell-based
CONDITIONS: BT-474, 48 h
Provide the reported IC50 of each item.

Consider the following illustrative entries.
- STRUCTURE_AS_SMILES: "C#CCO[C@H]1CCC(C)(C)[C@@H]2[C@H](OC(C)=O)[C@H](O)[C@@]3(C)O[C@@](C)(C=C)CC(=O)[C@]3(O)[C@@]12C"
  ASSAYED_SYSTEM: "BT-474"
  EXPERIMENTAL_RESULT: "> 100 µM"
- STRUCTURE_AS_SMILES: "C=C[C@@]1(C)CC(=O)[C@]2(O)[C@@]3(C)[C@@H](OCc4cc(-c5ccc(Cl)cc5)no4)CCC(C)(C)[C@@H]3[C@H](OC(C)=O)[C@H](O)[C@@]2(C)O1"
  ASSAYED_SYSTEM: "BT-474"
  EXPERIMENTAL_RESULT: "> 100 µM"

# IC50 lookup, item CC[C@@]1(C)CC(=O)[C@]2(O)[C@@]3(C)[C@@H](OCc4cc(-c5ccc(OC)c(OC)c5)no4)CCC(C)(C)[C@@H]3[C@H](O)[C@H](OC(C)=O)[C@@]2(C)O1
> 100 µM
